assay_method_text: qHTS for Inhibitors of human tyrosyl-DNA phosphodiesterase 1 (TDP1): qHTS in cells in absence of CPT; further: nearly all actives have a fitted effect of over 55% in size
assay_context: DT40 Tdp1-/- hTDP1 cells, no CPT, ATP luminescence, 48 h
In all, about 420,000 compounds went through this assay and about 64,000 (15%) were called active. About 27% were inconclusive and are not listed. The call rests on the fitted dose curve; in most records, active means well fitted inhibition curve with a large enough effect; inconclusive means small, poorly fitted or top-dose-only effect; inactive means flat fitted curve, though single readings scatter. A selection follows.
The reply should name one outcome from active, inactive

>  <compound>
COc1ccccc1/C=C/c1nc(C#N)c(NC(C)c2ccccc2)o1 (stereo not given)

>  <group_label>
active

$$$$
>  <compound>
COc1cccc(OCc2nnc3n2N=C(c2ccccc2)C(CC(=O)O)S3)c1 (stereo not given)

>  <group_label>
inactive

$$$$
>  <compound>
FC(F)(F)c1ccnc(Oc2ccc(C3=NCCS3)cc2)c1

>  <group_label>
inactive

$$$$
>  <compound>
O=C(CCN1C(=O)C2C3CCC(C3)C2C1=O)Nc1ccc(Cl)cc1Cl (stereo not given)

>  <group_label>
inactive

$$$$
>  <compound>
CCOC(=O)C1CCN(C(=O)CN2C(=O)NC(C)(c3ccc4cc(OC)ccc4c3)C2=O)CC1 (stereo not given)

>  <group_label>
active

$$$$
>  <compound>
CC1(c2ccc3ccccc3c2)NC(=O)N(CC(N)=O)C1=O (stereo not given)

>  <group_label>
inactive

$$$$

## Task How did this test come out for Cc1ccnc(SCC(=O)Nc2cccc(S(=O)(=O)N3CCOCC3)c2)n1 ?
## Result inactive

## Task Could you kindly confirm the outcome this assay logged for Oc1ccc(/C=N/Nc2nc(-c3ccccc3F)nc3ccccc23)c(O)c1 ?
## Result active

## Task Could you please tell me the result logged for CC1Cc2ccccc2N1C1=CC(=O)CC(C)(C)C1 (stereo not given) in this assay?
## Result inactive

## Task Please let me know the test result on file for CCOC(=O)N1CCC(N2Cc3cccc(C(=O)Nc4c(C)cccc4CC)c3C2=O)CC1 .
## Result active

----------
assay_method_text: qHTS for Inhibitors of human tyrosyl-DNA phosphodiesterase 1 (TDP1): qHTS in cells in absence of CPT; further: nearly all actives have a fitted effect of over 55% in size
assay_context: DT40 Tdp1-/- hTDP1 cells, no CPT, ATP luminescence, 48 h
Screen size: about 420,000 compounds; about 64,000 (15%) were called active. Inconclusive results (about 27%) are left out. Calls follow the shape of the dose curve; as a rule, active = well fitted inhibition curve with a large enough effect; inconclusive = small, poorly fitted or top-dose-only effect; inactive = flat fitted curve, though single readings scatter. The list is a sample of the results.
Outcomes you can answer with include only these: active, inactive

## Task I'd appreciate the recorded outcome for O=C(C1CCCN(S(=O)(=O)c2ccccc2)C1)N1CCN(c2ccc(F)cc2)CC1 (centres undefined) from this test.
## Result active

## Task Which outcome was entered for the compound Cc1ccc(N(C)C(=O)C2CCN(S(=O)(=O)c3ccc4c(c3)CCCN4C(=O)C3CCC3)CC2)cc1 in this test?
## Result active

----------
assay_method_text: qHTS for Inhibitors of human tyrosyl-DNA phosphodiesterase 1 (TDP1): qHTS in cells in absence of CPT; further: nearly all actives have a fitted effect of over 55% in size
assay_context: DT40 Tdp1-/- hTDP1 cells, no CPT, ATP luminescence, 48 h
Method: Human tyrosyl-DNA phosphodiesterase 1 (TDP1) is a novel repair gene, and we propose to use it as a new target for anticancer drug development. […] For the primary screen, Tdp1-/-;hTDP1 cells will be exposed to small molecules in the presence or absence of CPT, and their growth kinetics will be evaluated after 48 hours by measuring ATP activity. […] The hit compounds will then be evaluated in the presence or absence of CPT using Tdp1-/- cells. […]
In all, about 420,000 compounds went through this assay and about 64,000 (15%) were called active. Another 27% or so got no clear call; they are omitted. The call rests on the fitted dose curve; in most records, active means well fitted inhibition curve with a large enough effect; inconclusive means small, poorly fitted or top-dose-only effect; inactive means flat fitted curve, though single readings scatter. These entries were drawn from the full list.
Choose one outcome from this list and give only that: active, inactive

>  <compound>
O=C(c1ccc(CS(=O)Cc2ccccc2Cl)o1)N1CCN(c2ccccc2)CC1 (stereo not drawn)

>  <group_label>
active

$$$$
>  <compound>
O=C1C2C3C=CC(C3)C2C(=O)N1c1ncc([N+](=O)[O-])s1 (stereo not drawn)

>  <group_label>
inactive

$$$$
>  <compound>
COc1cc(Br)cc(/C=N/c2ncn[nH]2)c1O

>  <group_label>
inactive

$$$$
>  <compound>
Cn1c(SCC(=O)N2CCOCC2)nnc1-c1ccc2ncccc2c1

>  <group_label>
inactive

$$$$

## Task Answer briefly: the call reported for CSc1nc2ccc(NC(=O)c3c(F)cccc3F)cc2s1 in this assay.
## Result inactive

## Task What did the test return for O=c1ccc(-c2ccc(S(=O)(=O)Nc3ccccc3)o2)n[nH]1 ?
## Result inactive

## Task I would be grateful if you could indicate the recorded call for COC(=O)c1sc(SC)c(S(=O)(=O)C(C)C)c1N/N=C(\C#N)S(=O)(=O)c1ccccn1 .
## Result inactive

## Task Recorded test call requested for O=C(NCc1cccs1)c1ccc(CS(=O)Cc2ccccc2Cl)o1 (stereo not drawn)
## Result inactive

## Task How was O=C(Nc1ccccc1Cl)N1CCN(c2ccc3nncn3n2)CC1 classified in this test?
## Result inactive

## Task For this compound, state the assay outcome: CCOc1ccc(C(C)=O)cc1COC(=O)CNC(=O)c1cccs1
## Result inactive

## Task How was O=C1CCN(Cc2ccc([N+](=O)[O-])cc2)CCN1[C@H](CO)Cc1ccccc1 classified in this test?
## Result inactive

## Task Please let me know the test result on file for CCCC(=O)Nc1nc2ccc(NC(=O)c3c(F)c(F)c(OC)c(F)c3F)cc2s1 .
## Result active

## Task Look up the recorded call for O=C1CCNCCN1[C@H](CO)Cc1ccccc1 in this test.
## Result inactive

## Task Hi, sorry to bother you, what did the test record for CCC1CCCCN1CCCNC(=O)Cn1nc(-c2ccccc2)ccc1=O (stereo not drawn) ?
## Result active

## Task Which result was noted for this compound in the test: Cn1c(SCC(=O)OC2CCCCC2)nnc1-c1ccc(S(=O)(=O)N2CCCC2)cc1
## Result inactive

## Task Field: outcome | Entry: CCCC(=O)Nc1nc2ccc(NC(=O)c3cccnc3)cc2s1
## Result active

## Task Outcome logged for CC(C)(C)CN1C(=O)C(=O)NC[C@H]1Cc1cccc2ccccc12 in this assay:
## Result inactive

## Task Can you look up the reported call for CNC(=O)C[C@H]1C(=O)N(Cc2ccccc2)C[C@@H]1CSC for me?
## Result inactive

## Task Field: outcome | Entry: CCC1CN(CCNC(=O)c2cccnc2C)Cc2cc(OC)ccc2O1 (stereo not drawn)
## Result inactive

----------
assay_method_text: qHTS for Inhibitors of human tyrosyl-DNA phosphodiesterase 1 (TDP1): qHTS in cells in absence of CPT; further: nearly all actives have a fitted effect of over 55% in size
assay_context: DT40 Tdp1-/- hTDP1 cells, no CPT, ATP luminescence, 48 h
The whole screen tested about 420,000 compounds, of which about 64,000 (15%) were called active. Not shown: some 27% with an inconclusive outcome. Calls follow the shape of the dose curve; as a rule, active = well fitted inhibition curve with a large enough effect; inconclusive = small, poorly fitted or top-dose-only effect; inactive = flat fitted curve, though single readings scatter. Only a sample is shown.
Outcome (select one): active, inactive

Some solved cases for reference:
>  <compound>
COc1cc2ccccc2cc1C(=O)Nc1cccc(-c2nc3ccccc3o2)c1

>  <group_label>
active

$$$$
>  <compound>
COc1cc2ccccc2cc1C(=O)Nc1ccc(NC(=O)c2cccs2)cc1

>  <group_label>
active

$$$$
>  <compound>
CCOC(=O)N1CCN(C(=O)C[C@@H]2C[C@@]3(C(=O)OC)CC(C)(C)CC=C3N(Cc3ccco3)C2=O)CC1

>  <group_label>
active

$$$$
>  <compound>
COC(=O)[C@@]12C[C@@H](CC(=O)N3CCCCC3)C(=O)N(Cc3ccc4c(c3)OCO4)C1=CCC(C)(C)C2

>  <group_label>
active

$$$$
>  <compound>
COC(=O)[C@@]12C[C@@H](CC(=O)N3CCC(c4ccccc4)CC3)C(=O)N(Cc3ccccc3)C1=CCC(C)(C)C2

>  <group_label>
active

$$$$

## Task // param item: CCCOc1ccc(NC(=O)CC2C(=O)N(c3ccccc3)C(=O)N2Cc2ccco2)cc1 (stereo not given) ; yields the recorded call
## Result active

## Task Could you check what this test reported for CCn1cc(C(=O)N2CCN(Cc3ccc4c(c3)OCO4)CC2)c2cc(OC)c(OC)cc2c1=O ?
## Result inactive

## Task Per the records of this test, what outcome belongs to O=C(Nc1cccc(Br)c1)c1ccc2snnc2c1 ?
## Result inactive

## Task Each compound tested received a call. Report the one for O=C(Nc1cccc(-c2nc3ncccc3o2)c1)c1ccco1 .
## Result inactive

## Task Look up the recorded call for CCNC(=O)CC1C(=O)N(c2ccc(F)cc2)C(=O)N1Cc1cccs1 (stereo not given) in this test.
## Result inactive

## Task Assay outcome for CCNC(=O)N1CCNC(=O)C1CC(=O)Nc1ccc(C(=O)OCC)cc1 (stereo not given) : what was it?
## Result inactive

## Task Dear all, I need the recorded test outcome for CCOC(=O)N1CCN(C(=O)C(C)NC(=O)c2ccco2)CC1 (stereo not given) , thank you.
## Result inactive

## Task Could you please tell me the result logged for CCOC(=O)c1ccc(NC(=O)CC2C(=O)N(c3cccc(OC)c3)C(=O)N2C2CCCCC2)cc1 (stereo not given) in this assay?
## Result active
